# Assay summary: Cytotoxicity assay (MTT) in human fibroblasts
# Assay type: cell-based
# Details: human, gingival human fibroblasts, 95% confidence limits in square brackets
The entries below are paired with their reported CC50 at 24 h.

Molecule: COc1c(C)cnc(C[S+]([O-])c2nc3ccc(C)cc3[nH]2)c1C (centres unmarked)
CC50 at 24 h: 5 mM

Field: next molecule
Per the record, Cc1ccc2nc([S+]([O-])Cc3nccc(OCC(F)(F)F)c3C)[nH]c2c1 (centres unmarked) has CC50 at 24 h of 5.5 mM

----------
# Tested system: triosephosphate isomerase of G. lamblia (GlTIM) (Giardia intestinalis, UniProt P36186, C202A)
# Construct: His-tag (N, cleaved yes); TEV protease recognition site (N)
# Sequence (P36186 whole entry C202A): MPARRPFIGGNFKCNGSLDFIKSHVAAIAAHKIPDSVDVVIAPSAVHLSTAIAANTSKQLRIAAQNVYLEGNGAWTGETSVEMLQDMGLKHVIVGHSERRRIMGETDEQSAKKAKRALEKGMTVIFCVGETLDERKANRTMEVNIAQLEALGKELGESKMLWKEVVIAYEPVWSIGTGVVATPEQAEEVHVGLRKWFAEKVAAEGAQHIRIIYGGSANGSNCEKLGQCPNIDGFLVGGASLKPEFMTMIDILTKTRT
# Assay summary: Inactivation assay of recombinant GlTIM (C202A variant)
The entries below are paired with their reported pIC50.
When answering, recall that pIC50 equals minus log10 of the concentration in mol/L, and write that number alone.

Per the record, Cc1ccc2nc([S+]([O-])Cc3nccc(OCC(F)(F)F)c3C)[nH]c2c1 (stereo not drawn) [BHO3] has pIC50 of 4.00

Per the record, COc1ccc2[nH]c([S+]([O-])Cc3ncc(C)c(OC)c3C)nc2c1 (stereo not drawn) [Omeprazole, omeprazole, reference compound] has pIC50 of 3.65

Per the record, COc1c(C)cnc(C[S+]([O-])c2nc3ccc(C)cc3[nH]2)c1C (stereo not drawn) [BHO2] has pIC50 of 4.19

Data provenance is paper PMC5552691.
